pIC50: −log10 of the molar value.
These compounds were tested on KIF18A (Homo sapiens (Human), UniProt Q8NI77); pIC50 is the recorded read-out.
Sequence (Q8NI77 1-367): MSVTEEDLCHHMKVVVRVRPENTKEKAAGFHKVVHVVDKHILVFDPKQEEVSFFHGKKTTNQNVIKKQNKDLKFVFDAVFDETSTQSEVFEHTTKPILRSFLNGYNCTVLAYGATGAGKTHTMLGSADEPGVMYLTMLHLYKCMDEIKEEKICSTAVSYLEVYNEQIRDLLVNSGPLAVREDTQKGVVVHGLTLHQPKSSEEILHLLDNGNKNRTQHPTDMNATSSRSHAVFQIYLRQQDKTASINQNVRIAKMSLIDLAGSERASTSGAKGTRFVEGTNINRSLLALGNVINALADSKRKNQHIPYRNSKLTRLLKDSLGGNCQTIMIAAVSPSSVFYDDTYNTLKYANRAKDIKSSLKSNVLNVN
Sequence (P02550 whole entry partner): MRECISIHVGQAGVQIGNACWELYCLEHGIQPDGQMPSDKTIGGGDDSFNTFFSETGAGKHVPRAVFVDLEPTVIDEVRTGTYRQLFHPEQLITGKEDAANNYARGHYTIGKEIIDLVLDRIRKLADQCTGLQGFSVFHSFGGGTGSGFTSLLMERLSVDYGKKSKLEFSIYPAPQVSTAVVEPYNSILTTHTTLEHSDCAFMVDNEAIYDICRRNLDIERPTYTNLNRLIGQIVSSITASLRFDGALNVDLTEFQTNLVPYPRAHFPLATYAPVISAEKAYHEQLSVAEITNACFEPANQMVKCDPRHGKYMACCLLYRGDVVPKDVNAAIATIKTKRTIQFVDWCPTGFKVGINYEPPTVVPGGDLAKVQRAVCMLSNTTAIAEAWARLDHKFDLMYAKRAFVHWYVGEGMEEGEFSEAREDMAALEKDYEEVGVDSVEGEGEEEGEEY
Sequence (P02554 whole entry partner): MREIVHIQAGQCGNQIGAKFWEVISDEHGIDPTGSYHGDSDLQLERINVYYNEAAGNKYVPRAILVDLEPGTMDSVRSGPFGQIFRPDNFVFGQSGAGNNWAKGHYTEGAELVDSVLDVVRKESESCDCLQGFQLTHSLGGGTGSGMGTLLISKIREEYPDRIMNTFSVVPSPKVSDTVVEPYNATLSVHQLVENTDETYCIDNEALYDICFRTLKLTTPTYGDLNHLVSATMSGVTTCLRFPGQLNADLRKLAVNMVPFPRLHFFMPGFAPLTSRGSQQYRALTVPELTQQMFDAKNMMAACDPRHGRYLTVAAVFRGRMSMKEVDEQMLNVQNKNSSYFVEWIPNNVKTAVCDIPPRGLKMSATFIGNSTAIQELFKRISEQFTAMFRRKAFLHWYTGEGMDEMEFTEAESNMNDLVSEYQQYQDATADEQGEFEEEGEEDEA

// worked examples, pIC50 included
Record Cc1cc(NC(=O)c2ccc(NS(=O)(=O)CCO)cc2N2CC[Si](C)(C)CC2)nc(N2CCOC3(CC3)C2)n1 , field pIC50: > 7.00

Record Cc1cc(NC(=O)c2ccc(NS(=O)(=O)CCO)cc2N2CCC3(CO)CC3C2)nc(N2CCC(F)(F)CC2)n1 (centres unmarked) , field pIC50: 6.30 to 7.00

Record Cc1cc(NC(=O)c2ccc(NS(=O)(=O)CCO)cc2N2CC[C@@]3(C(F)F)C[C@H]3C2)nc(OC[C@H](O)C(F)(F)F)n1 , field pIC50: < 6.00

Record Cc1cc(NC(=O)c2ccc(NS(=O)(=O)CCO)nc2N2CC[Si](C)(C)CC2)nc(N2CCC(F)(F)CC2)n1 , field pIC50: > 7.00

Record C[Si]1(C)CCN(c2cc(NS(=O)(=O)CCO)ccc2C(=O)Nc2cccc(OC[C@@H](O)C(F)(F)F)n2)CC1 , field pIC50: > 7.00

Record Cc1cc(NC(=O)c2ccc(NS(=O)(=O)C(C)CO)cc2N2CC[Si](C)(C)CC2)nc(N2CC(F)(F)C2)c1 (centres unmarked) , field pIC50: > 7.00

Record COC[C@@]12CCN(c3cc(NS(=O)(=O)CCO)ccc3C(=O)Nc3cc(C)nc(N4CCC(F)(F)CC4)n3)C[C@@H]1C2 (single isomer, unassigned) [Example 49b] , field pIC50: > 7.00

Record Cc1cc(NC(=O)c2ccc(NS(=O)(=O)CCO)cc2N2CC[C@]3(CO)C[C@@H]3C2)nc(N2CCC(F)(F)CC2)n1 , field pIC50: < 6.00

Others:
Record Cc1cc(NC(=O)c2ncc(NS(=O)(=O)CCO)nc2N2CC[Si](C)(C)CC2)nc(N2CCC(F)(F)CC2)n1 , field pIC50: < 6.00

Record C[Si]1(C)CCN(c2cc(NS(=O)(=O)CCO)ccc2C(=O)Nc2cccc(C3(C(F)(F)F)N=N3)c2)CC1 , field pIC50: > 7.00

Record O=C(Nc1ccnc(N2CCC(F)(F)CC2)n1)c1ccc(NS(=O)(=O)CCO)cc1N1CC[C@@]2(C(F)F)C[C@H]2C1 , field pIC50: > 7.00

Record CC(=O)NCCS(=O)(=O)Nc1ccc(C(=O)Nc2cccc(N3CCC(F)(F)CC3)n2)c(N2CC[Si](C)(C)CC2)c1 , field pIC50: > 7.00

Record C[Si]1(C)CCN(c2cc(NS(=O)(=O)CCO)cc(F)c2C(=O)Nc2cccc(OC[C@@H](O)C(F)(F)F)n2)CC1 , field pIC50: > 7.00

----------
Listing: IC50 of selected compounds
assay system: KIF18A (Homo sapiens (Human))
measurement protocol: KIF18A Biochemical Assay (ATPase, ADP-Glo)

// worked examples, IC50 included
Record CC(CO)S(=O)(=O)Nc1ccc(C(=O)Nc2cccc(OCCC(F)(F)F)n2)c(N2CC[Si](C)(C)CC2)c1 (stereo not drawn) , field IC50: < 100 nM

Record Cc1cc(NC(=O)c2ccc(NS(=O)(=O)CCO)cc2N2CC[Si](C)(C)CC2)nc(N2CCOCC2)c1 , field IC50: < 100 nM

Record Cc1cc(NC(=O)c2ccc(NS(=O)(=O)CCO)cc2N2CC[C@@]3(C(F)F)C[C@H]3C2)nc(N2CCC(F)(F)CC2)n1 (single isomer, unassigned) [Example 29b] , field IC50: < 100 nM

Others:
Record Cc1cc(NC(=O)c2ccc(NS(=O)(=O)CCO)cc2N2CC[C@]3(C(C)(F)F)C[C@@H]3C2)nc(N2CCC(F)(F)CC2)n1 , field IC50: 100 to 500 nM

Record C[Si]1(C)CCN(c2cc(NS(=O)(=O)CCO)ccc2NC(=O)c2ccnc(OCCC(F)(F)F)n2)CC1 , field IC50: 100 to 500 nM

Record Cc1cc(NC(=O)c2ccc(NS(C)(=O)=O)cc2N2CC[C@@]3(C)C[C@H]3C2)nc(N2CCC(F)(F)CC2)n1 , field IC50: < 100 nM

Record CO[C@@]12CCN(c3cc(NS(=O)(=O)CCO)ccc3C(=O)Nc3cc(C)nc(N4CCC(F)(F)CC4)n3)C[C@@H]1C2 , field IC50: < 100 nM

Record Cc1cc(NC(=O)c2c(F)cc(NS(=O)(=O)CCO)cc2N2CC[Si](C)(C)CC2)nc(N2CCC(F)(F)CC2)n1 , field IC50: < 100 nM

Record Cc1cc(NC(=O)c2ccc(NS(=O)(=O)CCO)cc2N2CC[C@@]3(C(F)F)C[C@H]3C2)nc(OC[C@@H](O)C(F)(F)F)n1 , field IC50: > 1000 nM

Record COC[C@]12CCN(c3cc(NS(=O)(=O)CCO)ccc3C(=O)Nc3cc(C)nc(N4CCC(F)(F)CC4)n3)C[C@H]1C2 (single isomer, unassigned) [Example 49a] , field IC50: < 100 nM

Record Cc1cc(NC(=O)c2ccc(NS(=O)(=O)N(C)CCO)cc2N2CC[Si](C)(C)CC2)nc(N2CCC(F)(F)CC2)n1 , field IC50: < 100 nM

Record Cc1cc(NC(=O)c2ccc(NS(=O)(=O)NCCO)cc2N2CC[C@@]3(C)C[C@H]3C2)nc(N2CCC(F)(F)CC2)n1 , field IC50: < 100 nM

Record C[Si]1(C)CCN(c2cc(NS(=O)(=O)NCCO)ccc2C(=O)Nc2cccc(OC[C@H](O)C(F)(F)F)n2)CC1 , field IC50: < 100 nM

Record C[Si]1(C)CCN(c2cc(S(=O)(=O)CCO)ccc2C(=O)Nc2cccc(OC[C@@H](O)C(F)(F)F)n2)CC1 , field IC50: < 100 nM

Record Cc1cc(NC(=O)c2ncc(NS(=O)(=O)CCO)cc2N2CC[Si](C)(C)CC2)nc(N2CCC(F)(F)CC2)n1 , field IC50: < 100 nM

Record Cc1ccc(NC(=O)c2ccc(NS(=O)(=O)CCO)cc2N2CC[Si](C)(C)CC2)nc1N1CCOCC1 , field IC50: < 100 nM

Record C[Si]1(C)CCN(c2cc(S(=N)(=O)C3CC3)ccc2C(=O)Nc2cccc(N3CCC(F)(F)CC3)n2)CC1 (stereo not drawn) , field IC50: < 100 nM

Record O=C(Nc1cccc(N2CCC(F)(F)CC2)n1)c1c(F)cc(NS(=O)(=O)CCO)cc1N1CC[C@@]2(C(F)F)C[C@H]2C1 , field IC50: < 100 nM

Record C[Si]1(C)CCN(c2cc(NS(=O)(=O)CCO)ccc2NC(=O)c2ccnc(N3CCC(F)(F)CC3)n2)CC1 , field IC50: 100 to 500 nM

Record C[Si]1(C)CCN(c2cc(NS(=O)(=O)CCO)ccc2C(=O)Nc2cncc(N3CCC(F)(F)CC3)n2)CC1 , field IC50: < 100 nM

Record C[Si]1(C)CCN(c2cc(NS(=O)(=O)CCO)ccc2C(=O)Nc2cccc(OCCC(F)(F)F)n2)CC1 , field IC50: < 100 nM

----------
Tested on: OVCAR-3 cells
measurement protocol: In vitro anti-proliferative activity assay in cancer cell line OVCAR-3 (CellTiter-Glo, 4- or 7-day)
Format: cell-based
condition info: Homo sapiens, OVCAR-3, 168 h, 7-day assay; read-out: OVCAR-3 cellular antiproliferation assay IC50
pIC50: −log10 of the molar value.
quantity name: pIC50

// worked examples, pIC50 included
Record C[Si]1(C)CCN(c2cc(NS(=O)(=O)CCN)ccc2C(=O)Nc2cccc(N3CCC(F)(F)CC3)n2)CC1 , field pIC50: 6.30 to 7.00

Record O=C(Nc1ccnc(C2CCC(F)(F)CC2)n1)c1ccc(NS(=O)(=O)CCO)cc1N1CC[C@]2(C(F)F)C[C@@H]2C1 , field pIC50: > 7.00

Record C[Si]1(C)CCN(c2cc(NS(=O)(=O)CCO)c(F)cc2NC(=O)c2ccnc(N3CCC(F)(F)CC3)n2)CC1 , field pIC50: 6.30 to 7.00

Record CNS(=O)(=O)Nc1ccc(C(=O)Nc2cc(C)nc(C3CCC(F)(F)CC3)n2)c(N2CC[Si](C)(C)CC2)c1 , field pIC50: 6.30 to 7.00

Record Cc1cc(NC(=O)c2ccc(S(=O)(=O)NCCO)cc2N2CC[C@@]3(C)C[C@H]3C2)nc(N2CCC(F)(F)CC2)n1 , field pIC50: 6.30 to 7.00

Others:
Record Cc1cc(NC(=O)c2ccc(NS(=O)(=O)[C@@H](C)CO)cc2N2CC[Si](C)(C)CC2)nc(N2CCC(F)(F)CC2)n1 , field pIC50: 6.30 to 7.00

Record Cc1cc(NC(=O)c2c(F)cc(NS(=O)(=O)CCO)cc2N2CC[C@@]3(C)C[C@H]3C2)nc(N2CCC(F)(F)CC2)n1 (single isomer, unassigned) [Example 31b] , field pIC50: 6.30 to 7.00

Record C[C@H]1CN(c2nccc(C(=O)Nc3ccc(NS(=O)(=O)CCO)cc3N3CC[Si](C)(C)CC3)n2)CCO1 , field pIC50: 6.30 to 7.00

Record Cc1cc(NC(=O)c2ccc(NS(=O)(=O)CCO)cc2N2CC[C@]3(C)C[C@@H]3C2)nc(N2CCC(F)(F)CC2)n1 , field pIC50: > 7.00
